Hey, just so you know, these numbers are from ChEMBL document CHEMBL2169744.

test_details: Plasma protein binding in rat at 5 mg/kg, po
Assay type: ADME, organism-based
Design: dose 5 mg/kg, route oral
details: read-out: PPB (converted)
// boundary case: fraction unbound equal to 0.03 maps to not fulfilled; strictly smaller maps to fulfilled

Query :: # check: fraction unbound < 0.03 for CC(=O)Nc1cc(-c2c(Nc3ccn(C)n3)nc3ccccn23)nc(C)n1
Result :: not fulfilled

Query :: # check: fraction unbound < 0.03 for CC(=O)Nc1cc(-c2c(Nc3ccn(C)n3)nc3ccc(-c4cnn(C(C)C)c4)cn23)nc(C)n1
Result :: fulfilled

Query :: # check: fraction unbound < 0.03 for Cc1nc(N)cc(-c2c(Nc3cc[nH]n3)nc3cccnn23)n1
Result :: not fulfilled

Query :: # check: fraction unbound < 0.03 for CC(=O)Nc1cc(-c2c(Nc3cc[nH]n3)nc3cccnn23)nc(C)n1
Result :: not fulfilled

Continuing:
Query :: # check: fraction unbound < 0.03 for CC(=O)Nc1cc(-c2c(Nc3ccn(C)n3)nc3ccc(-c4cccnc4C)cn23)nc(C)n1
Result :: fulfilled

Query :: # check: fraction unbound < 0.03 for CC(=O)Nc1cc(-c2c(Nc3ccn(C)n3)nc3cccnn23)nc(C)n1
Result :: not fulfilled

Query :: # check: fraction unbound < 0.03 for Cc1nc(N)nc(-c2c(Nc3cc[nH]n3)nc3ccccn23)n1
Result :: fulfilled

====

Species: Rattus norvegicus
test_details: Unbound clearance in rat
Assay type: ADME, organism-based
details: in vivo
readout_name: CL free (mL/min/kg)
Answers are plain numbers, in mL/min/kg.

Query :: Fill in reported CL free for this entry: Cc1nc(N)cc(-c2c(Nc3cc[nH]n3)nc3cccnn23)n1
Result :: 435

Query :: Fill in reported CL free for this entry: CC(=O)Nc1cc(-c2c(Nc3ccn(C)n3)nc3ccccn23)nc(C)n1
Result :: 180

Query :: Fill in reported CL free for this entry: CC(=O)Nc1cc(-c2c(Nc3ccn(C)n3)nc3cccnn23)nc(C)n1
Result :: 555

Now look at this entry.
Query :: Fill in reported CL free for this entry: Cc1nc(N)cc(-c2c(Nc3cc[nH]n3)nc3ccccn23)n1
Result :: 515

====

test_details: Efflux ratio of apparent permeability from basal to apical to apical to basal side of pig LLC-PK1 cells
Type: ADME, cell-based, Sus scrofa
readout_name: efflux ratio
One number for each entry.

Query :: Fill in reported efflux ratio for this entry: Cc1nc(N)nc(-n2c(Nc3ccn[nH]3)nc3ccccc32)n1
Result :: 1.7

Now look at this entry.
Query :: Fill in reported efflux ratio for this entry: Cc1nc(N)nc(-c2c(Nc3cc[nH]n3)nc3ccccn23)n1
Result :: 2.4

====

target_of_assay: Phosphatidylinositol 4,5-bisphosphate 3-kinase catalytic subunit alpha isoform (Homo sapiens)
Sequence (P42336 whole entry, canonical isoform): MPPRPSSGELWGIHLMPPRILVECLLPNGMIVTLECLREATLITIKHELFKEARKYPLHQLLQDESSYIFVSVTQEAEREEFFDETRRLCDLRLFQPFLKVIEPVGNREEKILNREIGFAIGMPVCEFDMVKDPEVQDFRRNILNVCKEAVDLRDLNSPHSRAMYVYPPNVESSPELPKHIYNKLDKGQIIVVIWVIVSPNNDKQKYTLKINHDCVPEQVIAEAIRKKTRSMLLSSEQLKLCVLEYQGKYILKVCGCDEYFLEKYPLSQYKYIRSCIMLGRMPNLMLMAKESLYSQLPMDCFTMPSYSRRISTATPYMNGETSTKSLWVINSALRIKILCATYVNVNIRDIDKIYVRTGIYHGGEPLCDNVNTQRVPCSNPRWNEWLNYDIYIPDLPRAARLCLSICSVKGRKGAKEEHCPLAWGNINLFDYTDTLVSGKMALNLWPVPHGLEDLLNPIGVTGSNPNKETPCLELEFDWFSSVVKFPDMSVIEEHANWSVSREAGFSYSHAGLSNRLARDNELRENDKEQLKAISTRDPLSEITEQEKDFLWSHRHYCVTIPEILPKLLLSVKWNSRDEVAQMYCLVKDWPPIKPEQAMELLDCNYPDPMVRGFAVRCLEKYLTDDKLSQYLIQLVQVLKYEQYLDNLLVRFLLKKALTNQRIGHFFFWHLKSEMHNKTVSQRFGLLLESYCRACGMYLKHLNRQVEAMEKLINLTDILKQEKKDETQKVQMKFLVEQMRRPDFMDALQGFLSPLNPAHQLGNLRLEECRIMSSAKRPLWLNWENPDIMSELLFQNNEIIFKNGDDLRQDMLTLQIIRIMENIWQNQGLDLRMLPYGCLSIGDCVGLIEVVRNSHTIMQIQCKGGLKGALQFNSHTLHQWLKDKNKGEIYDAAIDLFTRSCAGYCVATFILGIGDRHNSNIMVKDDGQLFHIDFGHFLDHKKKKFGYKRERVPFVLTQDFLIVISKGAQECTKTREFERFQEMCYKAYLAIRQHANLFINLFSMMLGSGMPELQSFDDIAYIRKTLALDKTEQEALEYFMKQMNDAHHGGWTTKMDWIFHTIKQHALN
test_details: Inhibition of PI3Kalpha by AlphaScreen assay
// boundary case: IC50 equal to 600 nM maps to NO; strictly smaller maps to YES

Use the examples below as a reference point.
Query :: # check: IC50 < 600 nM for Cc1nc(N)nc(-c2c(Nc3ccn[nH]3)nc3ccc(-c4cncnc4C)cn23)n1
Result :: YES

Query :: # check: IC50 < 600 nM for CC(=O)Nc1cccc(-c2ccc3nc(Nc4cc[nH]n4)c(-c4nc(C)nc(N)n4)n3c2)c1
Result :: YES

Query :: # check: IC50 < 600 nM for Cc1nc(Nc2cccnn2)cc(-c2c(Nc3ccn[nH]3)nc3cccnn23)n1
Result :: YES

Query :: # check: IC50 < 600 nM for Cc1nc(N)nc(-c2c(Nc3cc[nH]n3)nc3ccc(-c4cccnc4)cn23)n1
Result :: YES

Continuing:
Query :: # check: IC50 < 600 nM for Cc1nc(Nc2ccc(N3CCOCC3)nn2)cc(-c2c(Nc3ccn[nH]3)nc3cccnn23)n1
Result :: YES

Query :: # check: IC50 < 600 nM for Cc1nc(N)nc(-c2c(Nc3cc[nH]n3)nc3ccc(-c4cccnc4C)cn23)n1
Result :: YES

Query :: # check: IC50 < 600 nM for CC(=O)Nc1cc(-c2c(Nc3cc[nH]n3)nc3ccccn23)nc(C)n1
Result :: YES

Query :: # check: IC50 < 600 nM for Cc1nccc(-c2c(Nc3ccn[nH]3)nc3cccnn23)n1
Result :: NO
